test system: MCF7; test: Cytotoxicity against human MCF7 cells assessed as viable cells at 10 uM by trypan blue staining based assay; assay type: functional; conditions: read-out: Activity
Value type: viability at 10 µM (%)
All answers are understood in %, so give the number only.

Find the measured viability at 10 µM: item CC1CN(CC2COc3ccccc3O2)C(C)CN1CC1COc2ccccc2O1 (stereo unspecified) , target or system MCF7. 80

Similarly, CCN(Cc1ccccc1)C(=O)C1CCN(Cc2c[nH]c3ccccc23)CC1 ? 48

Similarly, CC1(C)CCN(CCOC(=O)C(c2ccccc2)C2C=CCCC2)C1 (stereo unspecified) ? 98

Similarly, NC(c1ccc2c(c1)OCO2)C(O)c1ccc2c(c1)OCO2 (stereo unspecified) ? 74

Similarly, C[N+]1(CCOC(=O)C(c2ccccc2)C2C=CCC2)CCCC12CCCCC2 (stereo unspecified) ? 89

Similarly, CC1CN(CCOC(=O)C(c2ccccc2)C2C=CCCC2)C(C)(C)C1 (stereo unspecified) ? 93

Similarly, CCC1=C(CC2NCCc3ccccc32)CC2c3cc(OC)c(OC)cc3CCN2C1 (stereo unspecified) ? 31

Similarly, CCN(CC)CCC(=O)NC1c2ccc(Cl)cc2Oc2c(C)cccc21 (stereo unspecified) ? 100

Similarly, O=C1NCN(c2ccccc2)C12CCN(CCCS(=O)(=O)c1ccccc1)CC2 ? 77

Similarly, CN1CN(c2ccccc2)C2(CCN(CCc3cc4ccccc4o3)CC2)C1=O ? 31

Similarly, O=C1OCCN1N1C(=O)CC2(CCN(Cc3ccccc3)CC2)C1=O ? 95

----------
assay: Inhibition of P-gp in human MCF7/D70 cells assessed as decrease in doxorubicin IC50 at 10 uM after 72 hrs by MTT assay (Rvb doxorubicin alone IC50 = 0.906 +/- 0.02 uM); assay type: cell-based; conditions: MCF7/D70, 72 h
pIC50: −log10 of the molar value.
Returns t if the recorded pIC50 is greater than or equal to 6, and f otherwise.

Assess whether reported pIC50 for CCCC(=O)N(C)C1=Nc2ccc(Cl)cc2C(c2ccccc2)=[N+]([O-])C1 sits at 6 or higher. t

Similarly, N=c1[nH]c(=O)n(CCCCOc2ccccc2)cc1-c1ccc(Cl)c(Cl)c1 ? t

Similarly, Fc1ccc(N/C2=N/CC/N=C(/Nc3ccc(F)cc3)SS2)cc1 ? t

Similarly, COc1cc(-n2c(CCc3nc(-c4ccc(Cl)cc4)no3)n[nH]c2=S)c(OC)cc1Cl ? t

Similarly, COc1ccc(CCN(C)CCCC(C#N)(c2ccc(OC)c(OC)c2)C(C)C)cc1OC (stereo unspecified) [VERAPAMIL] ? t

Similarly, CC1(CN2CCCC2)CCC(NC(=O)C(c2ccccc2)c2ccccc2)C(C)(C)O1 (stereo unspecified) ? f

----------
I'd be grateful if you could share measured viability at 50 µM for these entries.
assay: Cytotoxicity against human fibroblast cells assessed as viable cells at 50 uM by trypan blue staining based assay; format: cell-based; details: read-out: Activity
All answers are understood in %, so give the number only.

Form field: reported viability at 50 µM of Cc1nn(C(=O)Cc2ccccc2)c2c1C(c1ccc(O)cc1)SC(=N)N2 (configuration not stated) 63

Similarly, COc1ccc(Nc2ccnc3cc(Cl)ccc23)cc1CNCC(C)C ? 17

Similarly, CCCNCCC(O)c1cc(C(F)(F)F)nc2c(C(F)(F)F)cccc12 (configuration not stated) ? 19

Similarly, CCN(CC)CCC(=O)NC1c2ccc(Cl)cc2Oc2c(C)cccc21 (configuration not stated) ? 13

Similarly, ClCCNCc1cccc(Nc2ccnc3cc(Cl)ccc23)c1 ? 48

Similarly, O=C1NCN(c2ccccc2)C12CCN(CCCS(=O)(=O)c1ccccc1)CC2 ? 100

Similarly, COc1cc2c(cc1OC)C(c1ccc(O)c(O)c1)CNC2 (configuration not stated) ? 97

Value source: ChEMBL document CHEMBL3769369
